# Rat PK-AUC/dose listing for each entry below
assay-method-text: Plasma level upon oral dosing (AUC-PO) in rat
Type: in vivo
condition-set: per dose, second table
Where a name gives a salt, the structure may show the parent alone.
Your answer should be a plain number; it is taken to be in ug-h/m/L/mg/Kg.

Below are worked cases with known answers.
| molecule | unit-abbrev | Rat PK-AUC/dose |
| --- | --- | --- |
| O=C(O)CC(Cc1csc(CCCc2ccc3c(n2)NCCC3)n1)c1cnc(C2CC2)s1 (stereo not shown) [Example 16, hydrochloride] | ug-h/m/L/mg/Kg | 1.7 |
| COc1ccc(C(CC(=O)O)Cc2csc(CCCc3ccc4c(n3)NCCC4)n2)cn1 (stereo not shown) [Example 13, hydrochloride] | ug-h/m/L/mg/Kg | 1.6 |
| Cc1nc2cc(C(CC(=O)O)Cc3csc(CCCc4ccc5c(n4)NCCC5)n3)ccc2s1 (stereo not shown) [Example 9, hydrochloride] | ug-h/m/L/mg/Kg | 2.5 |
| O=C(O)C[C@H](Cc1csc(CCCc2ccc3c(n2)NCCC3)n1)c1ccc2c(c1)OCO2 [Example 7, hydrochloride] | ug-h/m/L/mg/Kg | 8.7 |
| COc1cc(OC)cc(C(CC(=O)O)Cc2csc(CCCc3ccc4c(n3)NCCC4)n2)c1 (stereo not shown) [Example 5, hydrochloride] | ug-h/m/L/mg/Kg | 2.2 |
| O=C(O)CC(Cc1csc(CCCc2ccc3c(n2)NCCC3)n1)c1ccc2c(c1)OCO2 (stereo not shown) [Example 6, hydrochloride] | ug-h/m/L/mg/Kg | 6.8 |

# molecule COc1ccc(C(CC(=O)O)Cc2csc(CCCc3ccc4c(n3)NCCC4)n2)cc1F (stereo not shown) [Example 2, hydrochloride] ; its Rat PK-AUC/dose = 1.8
